This collection of values is drawn from ChEMBL document CHEMBL5532696.

Quick reference: Ratio IC50 of the listed items.
# Test system: Eca-109/VCR
# procedure.text: Reversal of vincristine resistance in human Eca-109/VCR cells assessed as reversal fold by measuring ratio of vincristine IC50 to vincristine IC50 in presence of test compound at 5 uM incubated for 48 hrs by CCK8 assay
# Assay type: functional
Just the number, please.

Example cases with answers are listed next.
CCOC(=O)C1C2c3ccc([N+](=O)[O-])cc3C(=O)C2C(c2ccccc2)C12C(=O)N(C)c1c(C)cc(C)cc12 (configuration not stated) :: 2.3
CCOC(=O)C1C2c3ccc([N+](=O)[O-])cc3C(=O)C2C(c2ccccc2)C12C(=O)N(C)c1c(C)cccc12 (configuration not stated) :: 38.9
CN1C(=O)C2(c3cccc(Br)c31)C(C(=O)OC(C)(C)C)C1c3ccc([N+](=O)[O-])cc3C(=O)C1C2c1ccccc1 (configuration not stated) :: 38.6
CCOC(=O)C1C2c3ccc([N+](=O)[O-])cc3C(=O)C2C(c2ccccc2)C12C(=O)N(C)c1ccc(OC(F)(F)F)cc12 (configuration not stated) :: 1.7
COc1cc2c(cc1OC)CN(CCc1ccc(NC(=O)c3cc(OC)c(OC)cc3NC(=O)c3cnc4ccccc4c3)cc1)CC2 [TARIQUIDAR] :: 364.3
CCOC(=O)C1C2c3ccc([N+](=O)[O-])cc3C(=O)C2C(c2ccccc2)C12C(=O)N(C)c1ccccc12 (configuration not stated) :: 86.8

State its Ratio IC50 on Eca-109/VCR: CN1C(=O)C2(c3cc(Cl)ccc31)C(C(=O)NC(C)(C)C)C1c3ccc([N+](=O)[O-])cc3C(=O)C1C2c1ccccc1 (configuration not stated)
659.1
